# Study System: EBP (Homo sapiens, UniProt Q15125)
# Construct: HEK293T cells were utilized as the source of EBP enzyme; endogenous in cells
# Sequence (Q15125 whole entry): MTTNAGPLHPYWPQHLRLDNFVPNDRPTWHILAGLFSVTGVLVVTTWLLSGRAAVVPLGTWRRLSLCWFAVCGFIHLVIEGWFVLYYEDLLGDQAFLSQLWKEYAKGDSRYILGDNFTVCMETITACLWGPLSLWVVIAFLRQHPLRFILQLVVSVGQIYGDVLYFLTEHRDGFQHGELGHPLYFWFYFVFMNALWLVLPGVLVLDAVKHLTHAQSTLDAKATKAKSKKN
# Protocol Details: EBP Functional Assay (EBP immunoaffinity LC-MS assay)
# Particulars: HEK293T cells as source of EBP enzyme; 30 min with inhibitor, then zymosterol-d5, 37° C. for 4 h; percent conversion by LC-APCI MRM MS
pIC50: −log10 of the molar value.

- Compound: "Cc1nn(C)c2ncc(S(=O)(=O)N3[C@@H]4CC[C@H]3C[C@H](N3CCC(C)CC3)C4)cc12 [Example 45]"
  Study System: "EBP (Homo sapiens, UniProt Q15125)"
  pIC50: "5.70 to 6.82"
- Compound: "CC1(CN[C@@H]2C[C@H]3CC[C@@H](C2)N3S(=O)(=O)c2ccc(OC(F)F)cc2)COC1 [Example 28]"
  Study System: "EBP (Homo sapiens, UniProt Q15125)"
  pIC50: "> 7.30"
- Compound: "CC1CCN([C@@H]2C[C@H]3CC[C@@H](C2)N3S(=O)(=O)c2cnc(C3CCOCC3)o2)CC1 [Example 6]"
  Study System: "EBP (Homo sapiens, UniProt Q15125)"
  pIC50: "> 7.30"
- Compound: "O=S(=O)(c1ccc(OC(F)F)cc1)N1[C@@H]2CC[C@H]1C[C@H](NCC1(O)CCOCC1)C2 [Example 18]"
  Study System: "EBP (Homo sapiens, UniProt Q15125)"
  pIC50: "> 7.30"
- Compound: "Cc1nc(C(F)(F)F)ccc1S(=O)(=O)N1[C@@H]2CC[C@H]1C[C@H](NC1CCOCC1)C2 [Example 75]"
  Study System: "EBP (Homo sapiens, UniProt Q15125)"
  pIC50: "5.70 to 6.82"
- Compound: "COC1CCN(C2CC3CCC(C2)N3S(=O)(=O)c2ccc(OC(F)F)cc2)C1 (stereo not shown) [Example 50]"
  Study System: "EBP (Homo sapiens, UniProt Q15125)"
  pIC50: "6.82 to 7.30"
- Compound: "CN(C1CCOCC1)[C@H]1C[C@H]2CC[C@@H](C1)N2S(=O)(=O)c1ccc(OC(F)F)cc1 [Example 65]"
  Study System: "EBP (Homo sapiens, UniProt Q15125)"
  pIC50: "> 7.30"
- Compound: "O=S(=O)(c1ccc(OC(F)F)cc1)N1C2CCC1CC(N1C3CCCC1CC(F)(F)C3)C2 (stereo not shown) [Example 16]"
  Study System: "EBP (Homo sapiens, UniProt Q15125)"
  pIC50: "> 7.30"
- Compound: "Cc1nc(C(F)(F)F)ccc1S(=O)(=O)N1[C@@H]2CC[C@H]1C[C@@H](NC1CC3(COC3)C1)C2 (single isomer, unassigned) [Example 69]"
  Study System: "EBP (Homo sapiens, UniProt Q15125)"
  pIC50: "6.82 to 7.30"
- Compound: "COCc1ccc(S(=O)(=O)N2[C@@H]3CC[C@H]2C[C@H](N2CCC(C)CC2)C3)o1 [Example 8]"
  Study System: "EBP (Homo sapiens, UniProt Q15125)"
  pIC50: "> 7.30"
- Compound: "CCn1nccc1S(=O)(=O)N1[C@@H]2CC[C@H]1C[C@H](N1CCC(C)CC1)C2 [Example 13]"
  Study System: "EBP (Homo sapiens, UniProt Q15125)"
  pIC50: "> 7.30"
- Compound: "Cc1cc(S(=O)(=O)N2[C@@H]3CC[C@H]2C[C@H](CN2CCOCC2)C3)n(C)n1 [Example 36]"
  Study System: "EBP (Homo sapiens, UniProt Q15125)"
  pIC50: "> 7.30"
- Compound: "CC1CCN([C@@H]2C[C@H]3CC[C@@H](C2)N3S(=O)(=O)c2ccc3c(c2)CC(C)(C)C(=O)N3)CC1 [Example 5]"
  Study System: "EBP (Homo sapiens, UniProt Q15125)"
  pIC50: "> 7.30"
- Compound: "CC(O)CCN[C@H]1C[C@H]2CC[C@@H](C1)N2S(=O)(=O)c1ccc(OC(F)F)cc1 (mixture of isomers) [Example 59]"
  Study System: "EBP (Homo sapiens, UniProt Q15125)"
  pIC50: "6.82 to 7.30"
- Compound: "O=S(=O)(c1ccc(OC(F)F)cc1)N1[C@@H]2CC[C@H]1C[C@@H](NCC1CCOCC1)C2 [Example 32]"
  Study System: "EBP (Homo sapiens, UniProt Q15125)"
  pIC50: "> 7.30"
- Compound: "O=S(=O)(c1ccc(OC(F)F)cc1)N1C2CCC1CC(NC1COC1)C2 (stereo not shown) [Example 74]"
  Study System: "EBP (Homo sapiens, UniProt Q15125)"
  pIC50: "< 5.70"
- Compound: "O=S(=O)(c1ccc(OC(F)F)cc1)N1[C@@H]2CC[C@H]1C[C@@H](NCC1(O)CCOCC1)C2 [Example 17]"
  Study System: "EBP (Homo sapiens, UniProt Q15125)"
  pIC50: "> 7.30"
- Compound: "O=S(=O)(c1ccc(OC(F)F)cc1)N1C2CCC1CC(NCC1CC(O)C1)C2 (single isomer, unassigned) [Example 62]"
  Study System: "EBP (Homo sapiens, UniProt Q15125)"
  pIC50: "6.82 to 7.30"
- Compound: "COC(C)C(C)NC1CC2CCC(C1)N2S(=O)(=O)c1ccc(OC(F)F)cc1 (stereo not shown) [Example 55]"
  Study System: "EBP (Homo sapiens, UniProt Q15125)"
  pIC50: "> 7.30"
- Compound: "COCn1ncc(Cl)c1S(=O)(=O)N1[C@@H]2CC[C@H]1C[C@H](N1CCC(C)CC1)C2 [Example 4]"
  Study System: "EBP (Homo sapiens, UniProt Q15125)"
  pIC50: "> 7.30"
- Compound: "O=S(=O)(c1ccc(OC(F)F)cc1)N1C2CCC1CC(N1CCC3(COC3)C1)C2 (stereo not shown) [Example 51]"
  Study System: "EBP (Homo sapiens, UniProt Q15125)"
  pIC50: "5.70 to 6.82"
- Compound: "CC(O)CNC1CC2CCC(C1)N2S(=O)(=O)c1ccc(OC(F)F)cc1 (stereo not shown) [Example 48]"
  Study System: "EBP (Homo sapiens, UniProt Q15125)"
  pIC50: "5.70 to 6.82"
- Compound: "O=S(=O)(c1ccc(OC(F)F)cc1)N1[C@@H]2CC[C@H]1C[C@@H](NCC1COC1)C2 [Example 72]"
  Study System: "EBP (Homo sapiens, UniProt Q15125)"
  pIC50: "> 7.30"
- Compound: "CC1CCN([C@@H]2C[C@H]3CC[C@@H](C2)N3S(=O)(=O)c2cn3c(n2)CCCC3C)CC1 (stereo partly shown) [Example 11]"
  Study System: "EBP (Homo sapiens, UniProt Q15125)"
  pIC50: "> 7.30"
- Compound: "CC1CCN([C@@H]2C[C@H]3CC[C@@H](C2)N3S(=O)(=O)c2csc(C(F)(F)F)n2)CC1 [Example 42]"
  Study System: "EBP (Homo sapiens, UniProt Q15125)"
  pIC50: "5.70 to 6.82"
- Compound: "CC1CCN([C@H]2C[C@H]3CC[C@@H](C2)N3S(=O)(=O)c2ccc(OC(F)F)cc2)CC1 [Example 20]"
  Study System: "EBP (Homo sapiens, UniProt Q15125)"
  pIC50: "> 7.30"
- Compound: "Cc1cc(C)c(S(=O)(=O)N2[C@@H]3CC[C@H]2C[C@H](CN2CCOCC2)C3)cn1 [Example 39]"
  Study System: "EBP (Homo sapiens, UniProt Q15125)"
  pIC50: "6.82 to 7.30"
- Compound: "O=S(=O)(c1ccc(OC(F)F)cc1)N1C2CCC1CC(NC1CCOCC1)C2 (stereo not shown) [Example 73]"
  Study System: "EBP (Homo sapiens, UniProt Q15125)"
  pIC50: "> 7.30"
- Compound: "CC1CCN([C@@H]2C[C@H]3CC[C@@H](C2)N3S(=O)(=O)c2ccc3c(c2)COCC3)CC1 [Example 7]"
  Study System: "EBP (Homo sapiens, UniProt Q15125)"
  pIC50: "> 7.30"
- Compound: "CC(O)CCN[C@@H]1C[C@H]2CC[C@@H](C1)N2S(=O)(=O)c1ccc(OC(F)F)cc1 (mixture of isomers) [Example 60]"
  Study System: "EBP (Homo sapiens, UniProt Q15125)"
  pIC50: "5.70 to 6.82"
- Compound: "O=S(=O)(c1ccc(OC(F)F)cc1)N1[C@@H]2CC[C@H]1C[C@H](NCC1COC1)C2 [Example 31]"
  Study System: "EBP (Homo sapiens, UniProt Q15125)"
  pIC50: "> 7.30"
